- assayed.system: Cytochrome P450 1A2 (Homo sapiens)
- procedure.summary: Cytochrome P450 Family 1 Subfamily A Member 2 (CYP1A2) small molecule antagonists: luciferase reporter qHTS assay (AID 1671199); note: nearly all actives have a fitted effect of over 50% in size
- test.settings: P450-Glo CYP1A2 enzyme, luciferin luminescence, 1 h; series mostly up to 53 µM
Results filed as inconclusive are left out. Activity calls are given as the source filed them. Calls come from the whole dose curve; as a rule, active = well fitted inhibition curve with a large enough effect in the repeat runs; inconclusive = weak or mixed curves; inactive = no such curve, though single readings can be large or run the other way.
Just give me one of these, please: yes (active), no (inactive)

>>> label("NC(=O)N[C@@H](CCC(=O)O)C(=O)O")
"no"
>>> label("O=C(O)CC(C(=O)O)S(=O)(=O)O (configuration not stated)")
"yes"
>>> label("C=CCCC(=O)O")
"no"
>>> label("CC(C)(C)C(=O)Oc1ccc(S(=O)(=O)Nc2ccccc2C(=O)NCC(=O)O)cc1")
"no"
>>> label("CCC(=O)OCc1ccccc1")
"no"
>>> label("CN1C(C)(C)CC(O)CC1(C)C")
"no"

Consider the record given below.
Q: Query: recorded result category for `CC(=O)c1ccccc1[N+](=O)[O-]` in this test
Result: yes

----------
- assayed.system: Estrogen receptor (Homo sapiens) (UniProt P03372)
- Sequence (P03372 whole entry, looked up): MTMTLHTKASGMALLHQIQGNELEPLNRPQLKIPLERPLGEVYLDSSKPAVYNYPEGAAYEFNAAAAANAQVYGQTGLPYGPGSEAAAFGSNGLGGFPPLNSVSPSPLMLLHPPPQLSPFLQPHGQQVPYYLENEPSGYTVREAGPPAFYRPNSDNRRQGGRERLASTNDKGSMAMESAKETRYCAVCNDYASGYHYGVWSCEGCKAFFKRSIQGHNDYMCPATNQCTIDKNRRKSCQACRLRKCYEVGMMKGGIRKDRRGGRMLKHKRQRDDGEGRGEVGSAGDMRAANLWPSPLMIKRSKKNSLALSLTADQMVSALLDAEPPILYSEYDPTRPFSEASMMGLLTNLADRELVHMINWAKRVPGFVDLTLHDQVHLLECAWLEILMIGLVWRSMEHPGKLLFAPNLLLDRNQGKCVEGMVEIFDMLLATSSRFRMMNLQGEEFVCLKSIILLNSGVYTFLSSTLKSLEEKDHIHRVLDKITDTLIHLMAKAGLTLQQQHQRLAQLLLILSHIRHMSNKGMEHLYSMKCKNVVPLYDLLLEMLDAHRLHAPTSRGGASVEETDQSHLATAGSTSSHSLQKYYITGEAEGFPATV
- procedure.summary: qHTS assay to identify small molecule agonists of the estrogen receptor alpha (ER-alpha) signaling pathway using the BG1 cell line (AID 743079); note: nearly all actives have a fitted effect of over 20% in size; for activation: % is set by controls: 0 for no effect and ±100 for the full control effect
- test.settings: BG1Luc4E2 cells, ERE-luciferase agonist, 22 h; series mostly up to 70.3 µM
Results filed as inconclusive are left out. Calls of active or inactive are those of the source. The call rests on the fitted dose curve; in most records, active means well fitted activation curve with a large enough effect in the repeat runs; inconclusive means weak or mixed curves, or effect the other way; inactive means no such curve, though single readings can be large or run the other way.
Your response should consist of one outcome taken from yes = active, no = inactive

Reference set, count: 2
>>> label("Nc1c2c(nc3c1CCC3)CCCC2")
"no"
>>> label("CC(C)(C)OC(=O)c1cccc(N)c1")
"yes"

Q: Which outcome did this test record for the compound CO[C@@]1(NC(=O)C(C(=O)O)c2ccc(O)cc2)C(=O)N2C(C(=O)O)=C(CSc3nnnn3C)CO[C@@H]21 (stereo partly drawn) ?
Result: no

----------
- procedure.summary: qHTS assay to identify small molecule agonists of the constitutive androstane receptor (CAR) signaling pathway - cell viability counter screen (AID 1224836); note: % is set by controls: 0 for no effect and ±100 for the full control effect; nearly all actives have a fitted effect of over 45% in size
- test.settings: HepG2-CYP2B6-hCAR viability, CellTiter-Fluor, 23 h, PK11195 added to every well; series mostly up to 92.4 µM
Results filed as inconclusive are left out. The source made the active and inactive calls. The call rests on the fitted dose curve; in most records, active means well fitted cell-killing curve with a large enough effect in the repeat runs; inconclusive means weak or mixed curves, or effect the other way; inactive means flat fitted curve, though single readings scatter.
result.type: viability change, negative = cytotoxic

Please review the entries below; each comes with its answer.
>>> data_value("CCN(CC#N)c1cccc(C)c1")
"inactive"
>>> data_value("CC(C)CC(C)(N)C#N (configuration not stated)")
"inactive"
>>> data_value("CC1=CC(=O)[C@H]2C[C@@H]1C2(C)C")
"inactive"
>>> data_value("CO/N=C(\\C(=O)N[C@@H]1C(=O)N2C(C(=O)O)=C(CSc3nc(=O)c(O)nn3C)CS[C@H]12)c1csc(N)n1")
"inactive"

Form: compound = COc1c(N2CCNC(C)C2)c(F)cc2c(=O)c(C(=O)O)cn(C3CC3)c12 (configuration not stated) ; viability change, negative = cytotoxic = inactive

The recorded viability change, negative = cytotoxic for entry `C=C[Si](OC(C)=O)(OC(C)=O)OC(C)=O` equals inactive

// field: viability change, negative = cytotoxic; key: `CC(C)c1ccc2ncccc2c1` ; value = inactive

The compound listed as CC(C(=O)O)c1cccc(Oc2ccccc2)c1 (configuration not stated) has a reported viability change, negative = cytotoxic of inactive

The reported value for `CC(C)C[C@@H](N)C(=O)O` in terms of viability change, negative = cytotoxic is 3.64% [at 19 µM] (inactive)

Documented viability change, negative = cytotoxic of `Cc1ccccc1N=C(N)N=C(N)N` : inactive

Lab note: measured viability change, negative = cytotoxic of CCC(C)(CN(C)C)OC(=O)c1ccccc1 (configuration not stated) was inactive

Record `CN(C)C(=O)Oc1ccc[n+](C)c1` . Reported viability change, negative = cytotoxic: inactive
